Conditions: buffer; pH 7.4; 200.0 µM
Property: solubility kinetic (µg/mL)

| Compound | Relation Qualifier | Measured Number |
| --- | --- | --- |
| Cc1ccc(NC(=O)O/N=C/c2ccc(Br)cc2)cc1 | = | 1.4 |
| COc1ccc([N+](=O)[O-])c(S(=O)(=O)c2ccccc2)n1 | = | 5.6 |
| COc1ccc(-c2nc(C#N)c(N3CCC(C)CC3)o2)cc1 | = | 0.3 |
| O=S(=O)(Nc1ccon1)c1ccc(F)c(F)c1 | = | 25.9 |
| COc1ccc(N(C(C)=O)c2nc3ccccc3[nH]2)cc1 | = | 38.2 |
| Cn1c(=O)n(C)c2cc(S(=O)(=O)N3CCN(c4ccccc4)CC3)ccc21 | = | 0.3 |
| S=C(NCc1cccnc1)Nc1ccc(Cl)cc1Cl | > | 46.8 |
| CCc1ccccc1NC(=O)COC(=O)c1c(C)nsc1NC | = | 1.9 |
| COc1ccc(CSc2nc(O)cc(=O)n2CC(C)C)cc1F | > | 50.8 |
| O=C(COC(=O)/C=C/c1ccc2c(c1)OCO2)NCc1ccccc1 | = | 1.5 |
| Cc1ccc(OCCCn2c(=O)oc3ccccc32)cc1 | = | 2 |
| CCc1nn(CC(=O)Nc2cc(C)ccc2C)c(=N)s1.Cl | > | 49 |
| CN1CCC(OC(c2ccccc2)c2ccccc2)CC1.Cl | > | 47.7 |
| COC(=O)c1scc(C)c1NC(=O)CSc1ccc(Cl)cc1 | = | 1.3 |
| CC1(C(=O)N2CCN(C(=O)c3ccco3)CC2)CC1(Br)Br (stereo not drawn) | > | 63 |
| CN(C)c1ccc(C(=O)C(=O)c2ccccc2)cc1 | = | 10.8 |
| Cl.NS(=O)(=O)c1ccc(CCNC/C=C/c2ccccc2)cc1 | > | 52.9 |
| N#CCCN(C(=O)COC(=O)c1cc(=O)[nH]c2ccccc12)c1ccccc1 | > | 56.3 |
| Cc1onc(-c2c(F)cccc2Cl)c1C(=O)NCc1ccccc1 | = | 49.7 |
| C=C1C(C(=O)Nc2ccc(OC)cc2)C1C(=O)Nc1ccc(OC)cc1 (stereo not drawn) | = | 0.6 |
| Cc1ccsc1C(=O)Nc1nccs1 | > | 33.6 |
| COc1ccc(-c2ocnc2C(=O)Nc2ccc3c(c2)CCC3)cc1 | = | 1.7 |
| COc1ccccc1C(=O)NCCCNC(=O)c1ccccn1 | > | 47 |
| CC(C)c1ccc(NC2CCCN(C(=O)c3ccncc3)C2)cc1 (stereo not drawn) | = | 47.1 |
| CCOC(=O)c1[nH]cnc1C(=O)Nc1ccc(Cl)cc1 | = | 2.2 |
| O=C1NC(=O)C(=Cc2ccc(Sc3ccccc3)o2)C(=O)N1 | = | 40.5 |
| Fc1cccc(F)c1-c1nc(-c2ccc(Cl)cc2)no1 | < | 0.3 |
| Cc1cc2c(Nc3cccc(O)c3)ncnc2s1.Cl | = | 41.7 |
| N#Cc1c(-c2ccccc2)ccnc1N1CCOCC1 | = | 17.6 |
| CCN(CC)S(=O)(=O)c1ccc(N2CCOCC2)c(NC(=O)c2sccc2C)c1 | = | 11.4 |
| Cc1ccc(NC(=O)Cc2ccsc2)cc1S(=O)(=O)N1CCOCC1 | > | 57.1 |
| O=S(=O)(Nc1cccc(S(=O)(=O)N2CCCC2)c1)c1ccc(Cl)cc1 | > | 60.1 |
| O=C(CSc1cccc[n+]1[O-])NCC1CCCCC1 | > | 42.1 |
